B1: Osa-1-4 twister ribozyme (parent)
chain: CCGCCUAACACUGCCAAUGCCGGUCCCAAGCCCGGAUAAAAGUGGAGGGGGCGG

# Variants of: B1
# Assay comment: self-cleavage, relative activity (ratio to wild type); higher = more cleavage; co-transcriptional
Grouping by measured self-cleavage is done with the following cut points: one: < 0.03; two: ≥ 0.03 and < 0.1; three: ≥ 0.1

Ask: Tag the class for A40C U37G
Result: three

Ask: Query A40C C33U next
Result: two

Ask: Can you handle A36C C25A next?
Result: two

Ask: Consider next the variant A16U C32U in the same way.
Result: three

Ask: What do we get for A46U U18G ?
Result: two

Ask: Also check G30U U24A
Result: one

Ask: Continue with C31A U12G
Result: two

Ask: Now this one: C20U G50A
Result: three
